Numbers sourced from patent US8034768B2.

Consider the following GI50 values measured on prostate cancer cells.
Starred links: 1 amine or outer side, 2 acyl side, 3 side chain; linkers in the order of their positions; H or OH if unused. Positions of bridges follow the written chain, without caps; N, C: chain ends. Non-standard residues stand in square brackets, D forms with d. Residues, ends and D or L forms follow the SMILES beside them. 1Nal = N[C@@H](Cc1cccc2ccccc12)C(=O)O; 2Nal = N[C@@H](Cc1ccc2ccccc2c1)C(=O)O; Cysteamide = C(CS[*:3])N[*:1]
MEASUREMENT LABEL: GI50 (nM)

{"columns": ["MOLECULE", "MEASUREMENT LABEL", "OBSERVED VALUE"],
 "data": [
  ["CC(C)[C@H]1NC(=O)C[C@@H]2NC(=O)[C@H](Cc3ccc4ccccc4c3)NC(=O)[C@H](Cc3ccc4ccccc4c3)NC(=O)[C@@H](CSSCCNC2=O)NC1=O [JMA33] ([dV][dC][2Nal][2Nal]D-Cysteamide; disulfide 2-C; lactam N-5)", "GI50", 33],
  ["CC(C)[C@H]1NC(=O)C[C@@H]2NC(=O)[C@H](Cc3ccccc3)NC(=O)[C@H](Cc3ccccc3)NC(=O)[C@@H](CSSCCNC2=O)NC1=O [JMA26] ([dV][dC]FFD-Cysteamide; disulfide 2-C; lactam N-5)", "GI50", 460],
  ["CC(C)[C@H]1NC(=O)C[C@@H]2NC(=O)[C@H](Cc3cccc4ccccc34)NC(=O)[C@H](Cc3cccc4ccccc34)NC(=O)[C@@H](CSSCCNC2=O)NC1=O [JMA47] ([dV][dC][1Nal][1Nal]D-Cysteamide; disulfide 2-C; lactam N-5)", "GI50", 47],
  ["CC(C)[C@H]1NC(=O)C[C@@H]2NC(=O)[C@H](Cc3ccccc3)NC(=O)[C@H](Cc3ccc4ccccc4c3)NC(=O)[C@@H](CSSCCNC2=O)NC1=O [JMA46] ([dV][dC][2Nal]FD-Cysteamide; disulfide 2-C; lactam N-5)", "GI50", 170]
]}
